Test system: Mycobacterium tuberculosis
method.summary: In Vitro antimicrobial activity against the Mycobacterium tuberculosis (MT) strain H-37-Rv ATCC
Type: functional
For each of the compounds below, state its MIC.
Give bare numbers, in µg/mL.

Example entries and their recorded answers appear below.
structure=CCCCCCCC/N=C(\S)c1cccnc1S measured_result=1
structure=O=c1ssc2ncccc12 measured_result=4
structure=CC/N=C(\S)c1cccnc1S measured_result=0.5
structure=CCCCCC/N=C(\S)c1cccnc1S measured_result=1
structure=CCCCCCn1sc2ncccc2c1=O measured_result=16
structure=CCCCCCCCCCCCCCCCCC/N=C(\S)c1cccnc1S measured_result=32
structure=CCCCC/N=C(\S)c1cccnc1S measured_result=2

Moving on to another compound below.
Q: Reported MIC for CCCC/N=C(\S)c1cccnc1S : what is it?
A: 4

###

For each of the compounds below, state its AUC.
method.summary: Area under curve (AUC) value of the compound
Type: ADME
Give bare numbers, in ng·h/mL.

structure=CC/N=C(\S)c1cccnc1S readout_label=AUC measured_result=18500

Moving on to another compound below.
Q: Reported AUC for CCCCCCC/N=C(\S)c1cccnc1S : what is it?
A: 8250

###

method.summary: Volume of distribution in rats after intravenous administration
Assay type: ADME, organism-based
measurement.setup: rat, in vivo, read-out: Vss
For each of the molecules below, state its Vd.
Numbers only, in L.

structure=CCCCCCC/N=C(\S)c1cccnc1S readout_label=Vd measured_result=1.28

Moving on to another molecule below.
Q: Reported Vd for CC/N=C(\S)c1cccnc1S : what is it?
A: 0.93

###

System: Mycobacterium tuberculosis
method.summary: In Vitro antimicrobial activity against the Mycobacterium tuberculosis (MT) strain H-37-Rv ATCC
Assay type: functional
readout.label: MIC

Example entries and their recorded answers appear below.
structure=C/N=C(\S)c1cccnc1S readout_label=MIC measured_result="2 µg/mL"
structure=CCC/N=C(\S)c1cccnc1S readout_label=MIC measured_result="2 µg/mL"

Dear reader, for each entry below, please note its MIC.
1. S/C(=N\C1CCCCC1)c1cccnc1S
2. OCC/N=C(\S)c1cccnc1S

A:
1: 0.5 µg/mL; 2: 2 µg/mL

###

method.summary: Clearance (CL) value in rats after intravenous administration.
Format: ADME, organism-based
measurement.setup: rat, in vivo, read-out: CI
For each of the compounds below, state its clearance.
Please report the result as a number followed by the unit.

structure=CC/N=C(\S)c1cccnc1S measured_result="20 mL/min"

Q: Reported clearance for CCCCCCC/N=C(\S)c1cccnc1S : what is it?
A: 50 mL/min

###

Test system: Mycobacterium avium
method.summary: In Vitro antimicrobial activity against the Mycobacterium avium complex (MAC) Wild type strain AN1
Format: functional
readout.label: MIC
Please report the result as a number followed by the unit.

Example entries and their recorded answers appear below.
compound=CCCC/N=C(\S)c1cccnc1S readout_label=MIC measured_result="4 µg/mL"
compound=CC/N=C(\S)c1cccnc1S readout_label=MIC measured_result="4 µg/mL"
compound=CCC/N=C(\S)c1cccnc1S readout_label=MIC measured_result="2 µg/mL"
compound=S/C(=N\C1CCCCC1)c1cccnc1S readout_label=MIC measured_result="4 µg/mL"
compound="CC[C@@H](CO)NCCN[C@@H](CC)CO [ETHAMBUTOL]" readout_label=MIC measured_result="1 µg/mL"
compound=CCCCCCCCCCCCCCCCCC/N=C(\S)c1cccnc1S readout_label=MIC measured_result="32 µg/mL"
compound=C/N=C(\S)c1cccnc1S readout_label=MIC measured_result="8 µg/mL"
compound=CCCCCCCCCCCCCCCC/N=C(\S)c1cccnc1S readout_label=MIC measured_result="8 µg/mL"

Dear reader, for each entry below, please note its MIC.
1. CCCCCCCCCC/N=C(\S)c1cccnc1S
2. CCCCC/N=C(\S)c1cccnc1S
3. CCCCCCCC/N=C(\S)c1cccnc1S
4. CCCCCCC/N=C(\S)c1cccnc1S
5. OCC/N=C(\S)c1cccnc1S
6. CCCCCCCCC/N=C(\S)c1cccnc1S

A:
1: 32 µg/mL; 2: 1 µg/mL; 3: 8 µg/mL; 4: 4 µg/mL; 5: 4 µg/mL; 6: 8 µg/mL

Q: Reported MIC for CCCCCC/N=C(\S)c1cccnc1S : what is it?
A: 1 µg/mL
